Target: FH-hGlyT2; human GlyT2 (Homo sapiens)
Sequence (Q9Y345 1-797): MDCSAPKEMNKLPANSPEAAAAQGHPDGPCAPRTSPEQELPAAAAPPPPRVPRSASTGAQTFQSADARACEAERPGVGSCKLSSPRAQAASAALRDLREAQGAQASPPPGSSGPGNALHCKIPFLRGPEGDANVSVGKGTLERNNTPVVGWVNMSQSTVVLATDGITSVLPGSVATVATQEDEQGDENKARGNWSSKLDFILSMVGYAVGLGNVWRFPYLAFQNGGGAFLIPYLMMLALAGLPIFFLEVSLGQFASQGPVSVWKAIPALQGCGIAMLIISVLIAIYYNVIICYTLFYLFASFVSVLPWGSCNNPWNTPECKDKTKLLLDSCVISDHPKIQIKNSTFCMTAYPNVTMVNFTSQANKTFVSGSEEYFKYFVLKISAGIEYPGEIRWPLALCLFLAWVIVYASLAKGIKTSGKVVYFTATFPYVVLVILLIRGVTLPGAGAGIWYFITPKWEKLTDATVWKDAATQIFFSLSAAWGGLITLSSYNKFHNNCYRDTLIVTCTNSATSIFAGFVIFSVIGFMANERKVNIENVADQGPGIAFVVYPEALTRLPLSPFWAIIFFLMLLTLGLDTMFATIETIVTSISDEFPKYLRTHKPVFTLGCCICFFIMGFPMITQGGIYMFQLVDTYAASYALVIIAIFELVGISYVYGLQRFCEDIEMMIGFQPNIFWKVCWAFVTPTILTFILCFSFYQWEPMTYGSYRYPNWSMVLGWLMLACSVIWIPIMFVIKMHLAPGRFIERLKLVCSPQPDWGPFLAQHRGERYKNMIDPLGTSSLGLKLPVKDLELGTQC
Assay: glycine uptake inhibition in PAE cells
Type: cell-based
Conditions: pH 7.5, 10 min uptake
Below is a list of entries, each paired with its recorded IC50 value.
PROPERTY NAME: IC50

>>> df
                                   molecule                        measured_target  reported_measurement
0  O=C(O)CCSc1[nH]c(=O)nc2[nH]c(=O)[nH]c12 [compound 1, ZINC6620309]  FH-hGlyT2; human GlyT2 (Homo sapiens)                478 nM
1  N[C@@H](COC(c1cccc(F)c1)c1ccccc1OCc1ccccc1)C(=O)O (stereo partly shown) [ALX1393, reference compound]  FH-hGlyT2; human GlyT2 (Homo sapiens)                 26 nM
2  O=C(O)CCCCSc1ncnc2[nH]c(=O)[nH]c12 [ZINC6865169]  FH-hGlyT2; human GlyT2 (Homo sapiens)                518 nM
3  O=c1[nH]c2c(c(=O)[nH]1)CCN(Cc1ccccc1)C2 [Lead 3]  FH-hGlyT2; human GlyT2 (Homo sapiens)              33200 nM
